- assay-comment: Rat liver microsome stability
- Assay type: in vitro ADME
- experimental-parameters: rat, liver microsomes; Table 4; read-out: Rat liver microsome (RLM) stability t1/2
Attribute: half-life
property-label: half-life (min)

compound: CC1(F)CN(C(=O)Cn2ccc3scc(-c4ccc(F)c(Cl)c4)c3c2=O)C1 [Example 39]
numeric-readout: 42
//
compound: CC1(F)CN(C(=O)Cn2ccc3scc(-c4ccc(Cl)c(Cl)c4)c3c2=O)C1 [Example 42]
numeric-readout: 36
//
compound: CC1(F)CN(C(=O)Cn2ccc3c(c(-c4ccc(F)c(Cl)c4)cn3C3CC3)c2=O)C1 [Example 285]
numeric-readout: 37.8
//
compound: O=C(Cn1ccc2scc(-c3ccc(F)c(Cl)c3)c2c1=O)N1CCCC1 [Example 3]
numeric-readout: 47.2
//
compound: O=C(Cn1ccc2scc(-c3cnc(Cl)c(Cl)c3)c2c1=O)N1CCC(F)C1 (stereo not drawn) [Example 12]
numeric-readout: 200
//
compound: CC1(F)CN(C(=O)Cn2ccc3scc(-c4ccc(F)c(C(F)(F)F)c4)c3c2=O)C1 [Example 43]
numeric-readout: 60.8
